System: SF-268 CNS
Assay: NCI-60 one-dose screen, 48 h (100 = growth as untreated, 0 = no growth, -100 = all killed)
Conditions: 10 µM unless noted
This is part of a sample that, as a whole, favours compounds with a hit. Of some 83,000 tested, about 20% had one in any assay.
parameter: growth (%)
Answers are plain numbers, in %.

Consider the reported growth for these compounds:
1) Cc1ccc(NSc2ccccc2[N+](=O)[O-])cc1: 48.7
2) Cn1ccc(Cc2cnc(N)s2)n1: 100
3) Cc1[nH]c(-c2nc3ccccc3[nH]2)c(C)c1C(=O)N1CCOCC1: 99.5
4) Cc1ccc(NC(=O)C(Cl)Cl)cc1: 105
5) Clc1ccc(-c2cn(-c3ccccc3)c(-c3ccccc3)n2)cc1: 96.9

Look up growth for the entries below, preserving their order.
1. CSc1ccc(Cl)c(C(=O)Nc2sccc2C(N)=O)c1
2. CCCCN(CCCC)CCCn1c(=O)c2sc3ncccc3c2n2nnc(-c3ccccc3)c12
3. CCCCCCNc1cc(C)nc2ccc(OC)cc12
4. CCCCN(Cc1ccc(C(=O)NO)cc1)C(=O)Nc1ccc(OCCCCCCCCCn2cc(CCCCC(=O)N[C@H](C(=O)N3C[C@H](O)C[C@H]3C(=O)NCc3ccc(-c4scnc4C)cc3)C(C)(C)C)nn2)cc1
5. COc1cccc(/C=C2\COc3ccc(O)cc3C2=O)c1OC

Reply text:
93.7
112
93.2
36.2
85

====

System: SNB-75 CNS
Experiment: NCI-60 one-dose screen, 48 h (100 = growth as untreated, 0 = no growth, -100 = all killed)
Conditions: 10 µM unless noted
About 83,000 compounds went through this panel and 20% of them were active in at least one assay; those are over-represented in the sample as a whole.
Okay, here is how we bin by growth: lower range = under -30%, middle range = from -30% up to 90%, upper range = 90% and over

Please review the entries below; each comes with its answer.
1. C=C1C(=O)O[C@H]2[C@H]1CC/C(COC(=O)/C=C\C(=O)NCc1ccc(Cn3c(=O)sn(CCCI)c3=O)cc1)=C\CC[C@@]1(C)O[C@@H]21: lower range
2. COc1cc(/C=C/c2nc(Nc3ccc(S(=O)(=O)Nc4cc(C)on4)cc3)c3ccccc3n2)ccc1O: middle range
3. CC(C)n1nc(C#Cc2cccc(NC(=O)c3cccc(C(F)(F)F)c3)c2)c2c(N)ncnc21: lower range
4. N#Cc1c(NC(=O)c2cccc(C(F)(F)F)c2)sc2c1CCC(=O)C2: lower range
5. CCOC(=O)C(=CNc1ccccc1[N+](=O)[O-])C(=O)OCC: upper range
6. CCN(CC)CCOC(=O)Nc1ccccc1Cl: upper range
7. CC(C)(C)N1CC(OC(N)=O)C1: middle range

Let us examine a further case.
Inquiry: Band assignment needed for O=[N+]([O-])c1ccccc1C(O)Cc1ccc2ccccc2n1 (stereo not given) please.
Reply text: middle range

====

Tested on: OVCAR-5 ovarian
Test: NCI-60 one-dose screen, 48 h (100 = growth as untreated, 0 = no growth, -100 = all killed)
Details: 10 µM unless noted
About 83,000 compounds went through this panel and 20% of them were active in at least one assay; those are over-represented in the sample as a whole. The source made the active and inactive calls. Rule for the calls: active = growth percent below 10; inactive = the rest.
parameter: growth

Consider the reported growth for these compounds:
1) COc1ccc(/C(C)=C(\c2ccc(Cl)cc2)c2ccc(OCCN3CCCCC3)cc2)cc1F: 51.5% (inactive)
2) O=C(Oc1ccc([N+](=O)[O-])cc1)c1ccc(CBr)cc1: 103% (inactive)
3) COc1cc(C2CC(c3ccc(Nc4nc(Nc5ccc(F)cc5)nc(Nc5ccc(Cl)cc5)n4)cc3)=NN2C(C)=O)cc(OC)c1OC (stereo not drawn): 83.5% (inactive)
4) Cc1ccc(S(=O)(=O)NN/C(N)=N\S(=O)(=O)c2cc(C)c(Cl)cc2SCc2ccccc2)cc1: 89.2% (inactive)
5) Cc1cc(=O)c2cc3nc(-c4cccnc4)oc3c(Br)c2o1: 90.1% (inactive)
6) CNC=O: 87.7% (inactive)
7) O=C1CC(c2ccc3c(c2)OCO3)Nc2cc3c(cc21)OCO3 (stereo not drawn): 44.7% (inactive)
8) COc1ccc(C2CC(c3cnccn3)=NN2)cc1OC (stereo not drawn): 114% (inactive)

Look up growth for the entries below, preserving their order.
1. CCN(CC)CCCC(C)NCc1ccccc1 (stereo not drawn)
2. NC(N)=N/N=C(/c1ccccc1)c1ccccc1F
3. CC(C)n1nc(C#Cc2cccc3cc(-c4cccc(C(F)(F)F)c4)ncc23)c2c(N)ncnc21
4. Fc1ccc(Nc2nc(Nc3ccc(-c4nc5ccccc5[nH]4)cc3)c3cn[nH]c3n2)cc1
5. Nc1c(C(=O)c2ccc(Cl)s2)sc2nc3c(cc12)CCCC3
6. CCCCCCN(CCCCCC)CC(O)c1cccc2ccc(Cl)cc12 (stereo not drawn)

Reply text:
["97.6% (inactive)", "76.4% (inactive)", "86.1% (inactive)", "106% (inactive)", "137% (inactive)", "69.3% (inactive)"]

Look up growth for the entries below, preserving their order.
1. N#Cc1c(N)nc2c(nnn2-c2cccc(C(F)(F)F)c2)c1N
2. Cc1cc(C)on1

Reply text:
1: 102% (inactive); 2: 116% (inactive)

Look up growth for the entries below, preserving their order.
1. COc1cc2c(=O)n(CCCn3ccnc3)c3c4cc5c(cc4ccc3c2cc1OC)OCO5
2. CCc1nc2ccccc2[nH]1
3. O=C1CSC(c2ccccc2)N1c1ccccc1 (stereo not drawn)
4. C=CCOc1cccc(/C=C2\SC(=Nc3ccc(O)cc3)NC2=O)c1
5. O=C1Nc2ccccc2/C1=N/N=C/c1ccsc1
6. COc1ccccc1NC(=O)Nc1ccc(-c2nc3ccccc3o2)cc1

Reply text:
13.9% (inactive)
110% (inactive)
103% (inactive)
27.9% (inactive)
115% (inactive)
104% (inactive)

Inquiry: I would be grateful if you could share the reported growth for "CCn1c(Sc2nnc(NC(=O)CCN3CCCC3)s2)nc2c1c(=O)n(C)c(=O)n2C" .
Reply text: 98.3% (inactive)
